Source: patent USRE50631

Target: human receptor tyrosine kinase like orphan receptor 1 (ROR1) (human, UniProt Q01973 30-937)
Sequence (Q01973 30-937): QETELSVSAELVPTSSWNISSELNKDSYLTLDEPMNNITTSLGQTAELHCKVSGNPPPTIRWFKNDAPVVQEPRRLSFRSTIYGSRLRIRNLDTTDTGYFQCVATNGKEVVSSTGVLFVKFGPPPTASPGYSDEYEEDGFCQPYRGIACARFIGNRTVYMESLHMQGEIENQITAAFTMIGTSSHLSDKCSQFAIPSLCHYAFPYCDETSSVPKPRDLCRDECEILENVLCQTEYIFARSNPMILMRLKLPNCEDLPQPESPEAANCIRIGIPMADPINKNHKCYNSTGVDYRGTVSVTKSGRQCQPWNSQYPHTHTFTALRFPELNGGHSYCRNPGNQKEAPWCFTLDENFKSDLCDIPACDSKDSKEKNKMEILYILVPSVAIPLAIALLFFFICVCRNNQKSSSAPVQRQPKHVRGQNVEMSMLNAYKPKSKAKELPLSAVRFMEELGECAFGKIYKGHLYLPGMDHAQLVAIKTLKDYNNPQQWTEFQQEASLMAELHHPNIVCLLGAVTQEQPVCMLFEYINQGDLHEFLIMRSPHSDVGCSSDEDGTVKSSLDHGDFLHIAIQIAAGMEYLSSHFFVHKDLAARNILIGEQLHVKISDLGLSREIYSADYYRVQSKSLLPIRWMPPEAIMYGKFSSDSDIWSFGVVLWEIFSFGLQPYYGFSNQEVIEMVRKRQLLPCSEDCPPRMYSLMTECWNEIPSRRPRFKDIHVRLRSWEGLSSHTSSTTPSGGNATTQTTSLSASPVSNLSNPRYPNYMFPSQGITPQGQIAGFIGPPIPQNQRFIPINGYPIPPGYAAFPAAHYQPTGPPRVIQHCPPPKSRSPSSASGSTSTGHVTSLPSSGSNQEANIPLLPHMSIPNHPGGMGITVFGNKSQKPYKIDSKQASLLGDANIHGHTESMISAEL
Assay: cell-based or functional assay
EXPERIMENTAL_READOUT: IC50, cell viability (CellTiter-Glo, 72 h), SKOvr3 cells (nM)
Field: numeric (nM). Do not append units.

Ask: # IC50, cell viability (CellTiter-Glo, 72 h), SKOvr3 cells lookup, item ADC-E (antibody, human IgG1, kappa, V domains shown, SC-VC-PAB-MMAE bonded via lysine residues of the antibody (chain and positions not stated)) VH: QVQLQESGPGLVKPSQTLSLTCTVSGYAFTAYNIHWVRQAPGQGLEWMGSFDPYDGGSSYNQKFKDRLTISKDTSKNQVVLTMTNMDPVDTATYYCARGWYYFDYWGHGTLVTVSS VL: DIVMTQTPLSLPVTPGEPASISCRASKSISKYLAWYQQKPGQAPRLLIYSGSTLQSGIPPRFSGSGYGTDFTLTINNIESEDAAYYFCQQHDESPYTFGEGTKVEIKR
Reply: 201
